target: PD-1-Ig/PD-L1-His (Homo sapiens, UniProt Q9NZQ7); construct: [hPD-L1(19-239)-tobacco vein mottling virus protease cleavage site (TVMV)-His]; made in house; host or cells: HEK293T cells; experiment: PD-1/PD-L1 Homogenous Time-Resolved Fluorescence (HTRF) binding assay; details: inhibition of PD-1-Ig binding to PD-L1-TVMV-His; range classes
Sequence (Q9NZQ7 with tags, fused parts or gaps): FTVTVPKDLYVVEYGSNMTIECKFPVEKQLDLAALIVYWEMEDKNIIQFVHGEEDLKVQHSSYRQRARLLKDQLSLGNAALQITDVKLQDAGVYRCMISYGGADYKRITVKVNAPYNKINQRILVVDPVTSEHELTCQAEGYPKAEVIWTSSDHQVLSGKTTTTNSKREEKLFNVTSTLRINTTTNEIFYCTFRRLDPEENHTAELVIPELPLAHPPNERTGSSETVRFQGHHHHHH
Starred links: 1 amine or outer side, 2 acyl side, 3 side chain; linkers in the order of their positions; H or OH if unused. Positions of bridges follow the written chain, without caps; N, C: chain ends. Non-standard residues stand in square brackets, D forms with d. Residues, ends and D or L forms follow the SMILES beside them. X5 = C[C@@H](C(=O)[*:2])n1nnnc1[C@H](Cc1ccccc1)N[*:1]; Bta = N[C@@H](Cc1csc2ccccc12)C(=O)O; NMeNle = CCCC[C@H](NC)C(=O)O
Consider the following compounds and their measured IC50 readings.

>>> observed("CCCC[C@H]1C(=O)N[C@H](CCCNC(=N)N)C(=O)N[C@@H](C(=O)NCC(N)=O)CSCC(=O)N[C@@H](Cc2ccccc2)C(=O)N(C)[C@@H](C)C(=O)N[C@@H](CC(N)=O)C(=O)N2CCC[C@H]2C(=O)N[C@@H](Cc2cnc[nH]2)C(=O)N[C@@H](CC(C)C)C(=O)N(C)CC(=O)N[C@@H](Cc2c[nH]c3ccccc23)C(=O)N[C@@H](CO)C(=O)N[C@@H](Cc2cccc3ccccc23)c2nnnn2[C@@H](CCCC)C(=O)N1C [Example 1005]")
"0.1 to 10 µM"

Kindly review the next compound as well.
input: Answer with the recorded IC50 of CCCC[C@H]1C(=O)N(C)[C@@H](CCCC)C(=O)N[C@@H](CCCNC(=N)N)C(=O)N[C@H](C(=O)NCC(N)=O)CSCC(=O)N[C@@H](Cc2ccccc2)c2nnnn2[C@@H](C)C(=O)N[C@@H](CC(N)=O)C(=O)N2CCC[C@H]2C(=O)N[C@@H](Cc2cnc[nH]2)C(=O)N[C@@H](CC(C)C)C(=O)N2CCC[C@H]2C(=O)N[C@@H](Cc2c[nH]c3ccccc23)C(=O)N[C@@H](CO)C(=O)N[C@@H](Cc2csc3ccccc23)C(=O)N1C [Example 1010] ({CH2CO}-[X5]NPHLPWS[Bta][NMeNle][NMeNle]RCG-NH2; thioether N-13) only.
output: 0.1 to 10 µM
